- Measured target: the molecule itself
- Experiment summary: cell-based or functional assay
Quantity kind: In vitro activity (% of WT), EnzChek pyrophosphate assay, forward reaction

1) PaUGP K59A (enzyme, UDP-glucose pyrophosphorylase of Pseudomonas aeruginosa (galU), residues 1-279, point mutant of Strep-PaUGP; Same construct as m1; source: E. coli BL21(DE3), purified (Strep-Tactin Sepharose); not shown: Strep-tagII, N-terminal, kept) MIKKCLFPAAGYGTRFLPATKAMPKEMLPVVNKPLIQYAVEEALEAGLSEIGIVTGRGARSLEDHFDISYELEHQIRNTDKEKYLVGIRRLIDECTFAYTRQVEMKGLGHAILTGRPLIGDEPFAVVLADDLCLNLEGDSVLKQMVKLYNQFRCSIVAIQEVPPEETNKYGVIAGEMIRDDIFRVNTMVEKPKPEEAPSNLAIIGRYILTPDIFDLIEQTEPGKGGEIQITDALMKQAQDGCVLAYKFKGKRFDCGSAEGYIEATNFCYENLYKTGKAH | 2.31 % of WT
2) PaUGP K21A + R101A double mutant (enzyme) MIKKCLFPAAGYGTRFLPATAAMPKEMLPVVNKPLIQYAVEEALEAGLSEIGIVTGRGKRSLEDHFDISYELEHQIRNTDKEKYLVGIRRLIDECTFAYTAQVEMKGLGHAILTGRPLIGDEPFAVVLADDLCLNLEGDSVLKQMVKLYNQFRCSIVAIQEVPPEETNKYGVIAGEMIRDDIFRVNTMVEKPKPEEAPSNLAIIGRYILTPDIFDLIEQTEPGKGGEIQITDALMKQAQDGCVLAYKFKGKRFDCGSAEGYIEATNFCYENLYKTGKAH | 0.32 % of WT
3) PaUGP R101A (enzyme, UDP-glucose pyrophosphorylase of Pseudomonas aeruginosa (galU), residues 1-279, point mutant of Strep-PaUGP; Same construct as m1; source: E. coli BL21(DE3), purified (Strep-Tactin Sepharose); not shown: Strep-tagII, N-terminal, kept) MIKKCLFPAAGYGTRFLPATKAMPKEMLPVVNKPLIQYAVEEALEAGLSEIGIVTGRGKRSLEDHFDISYELEHQIRNTDKEKYLVGIRRLIDECTFAYTAQVEMKGLGHAILTGRPLIGDEPFAVVLADDLCLNLEGDSVLKQMVKLYNQFRCSIVAIQEVPPEETNKYGVIAGEMIRDDIFRVNTMVEKPKPEEAPSNLAIIGRYILTPDIFDLIEQTEPGKGGEIQITDALMKQAQDGCVLAYKFKGKRFDCGSAEGYIEATNFCYENLYKTGKAH | 0.83 % of WT
